B1: HDAC6 (parent)
chain: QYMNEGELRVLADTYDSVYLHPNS

Variants of: B1
Assay: protein stability index of a GFP-peptide fusion (GPS, HEK-293T) (PSI 1-6); higher = more stable;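 note: lentivirally expressed fusions sorted by FACS into six bins by GFP to DsRed ratio, PSI derived from sequencing read proportions per bin multiplied by bin number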
Settings: c terminus: a fixed tail appended
# label = y if protein stability index >= 2 else n

sequenceInput: QYMNEGELRVLADTYDSCYLHPNS
labelValue: y
//
sequenceInput: QYMNEGEMRVLADTYDSVYLHPNS
labelValue: n
//
sequenceInput: QYMNEGELRVLADTYDSVYLHPYS
labelValue: n
//
sequenceInput: QYMNEGELRVLADTYDSVYGHPNS
labelValue: y
//
sequenceInput: QYDNEGELRVLADTYDSVYLHPNS
labelValue: y
//
sequenceInput: QYMNEGEGRVLADTYDSVYLHPNS
labelValue: y
//
sequenceInput: QYMNEGECRVLADTYDSVYLHPNS
labelValue: y
//
sequenceInput: QYMNEGELRVLADTYDSPYLHPNS
labelValue: n
//
sequenceInput: QYMCEGELRVLADTYDSVYLHPNS
labelValue: y
//
sequenceInput: QYMNEGELRVQADTYDSVYLHPNS
labelValue: y
//
sequenceInput: QYMNEGELRNLADTYDSVYLHPNS
labelValue: y
//
sequenceInput: QYMNEGELRVLADTYDSVYLMPNS
labelValue: n
//
sequenceInput: QYMNEGELRVLARTYDSVYLHPNS
labelValue: n
//
sequenceInput: QYMNEGELRFLADTYDSVYLHPNS
labelValue: y
//
sequenceInput: QYMNEGELRVLADTYDSVYLAPNS
labelValue: n
//
sequenceInput: QYMNEGELRVLADTYDSVYDHPNS
labelValue: y
//
sequenceInput: QYMNEGELRVLADTYDDVYLHPNS
labelValue: y
//
sequenceInput: QYMNEGELRVLADTYDSVYLHPNF
labelValue: n
//
sequenceInput: QYMNEGELRVLADFYDSVYLHPNS
labelValue: n
//
sequenceInput: QYMNEGELRVRADTYDSVYLHPNS
labelValue: y
//
sequenceInput: QYWNEGELRVLADTYDSVYLHPNS
labelValue: y
//
sequenceInput: QYMNEGELRVLAPTYDSVYLHPNS
labelValue: n
//
sequenceInput: QYMNEWELRVLADTYDSVYLHPNS
labelValue: n
//
sequenceInput: QYMNEGELRVLADTYDSVYLSPNS
labelValue: n
//
sequenceInput: QYYNEGELRVLADTYDSVYLHPNS
labelValue: y
//
sequenceInput: QYMNEGELRVLADTYDSVHLHPNS
labelValue: y
//
sequenceInput: QYMNEGELRVLADTYDSVPLHPNS
labelValue: y
//
sequenceInput: QYMNEGELRVLADTYDSVYLHLNS
labelValue: n
//
sequenceInput: QYMNEGELRVDADTYDSVYLHPNS
labelValue: y
//
sequenceInput: QYMNEGELRMLADTYDSVYLHPNS
labelValue: y
//
sequenceInput: QYMNEGELRVLVDTYDSVYLHPNS
labelValue: n
//
sequenceInput: QYMNEGELRVLADTYDSVYAHPNS
labelValue: y
//
sequenceInput: QYMNEGELRVLADTYDSVTLHPNS
labelValue: y
//
sequenceInput: QYMNEGELRWLADTYDSVYLHPNS
labelValue: y
//
sequenceInput: QYMNEGELRVLADTYDSVYLHSNS
labelValue: n
//
sequenceInput: QYMNEGELRVLAGTYDSVYLHPNS
labelValue: y
//
sequenceInput: QYMNEGELRVLADTYDSVQLHPNS
labelValue: y
//
sequenceInput: QYMNEGELRVLADTYDSVLLHPNS
labelValue: y
//
sequenceInput: QYMNEGETRVLADTYDSVYLHPNS
labelValue: y
//
sequenceInput: QYMNEGELRYLADTYDSVYLHPNS
labelValue: y
//
sequenceInput: QYHNEGELRVLADTYDSVYLHPNS
labelValue: y
//
sequenceInput: QYMNEGELRVLADTYDSVYLHGNS
labelValue: y
//
sequenceInput: QYMNEGELYVLADTYDSVYLHPNS
labelValue: n
